src = a melting point compilation (Tetko et al.; mined from patent text by program, amines drawn as free bases though some values may be those of a salt)

Overview of recorded melting point for various molecules

# count of solved cases: 10
O=C(O)c1c2n(c3cc(N4CCOCC4)c(F)cc3c1=O)CS2 = 244 to 248 °C
Cc1c(CC(=O)O)c2cc(OCc3ccc4ccccc4n3)ccc2n1Cc1ccc(C(=O)O)cc1 = 232 to 234 °C
COc1cn(-c2cccc(C(F)(F)F)c2)nc(C(=O)C=CN(C)C)c1=O = 176 to 178 °C
Cc1[nH]c2ccc(O)cc2c1C(=O)NC1CCN(CCc2ccccc2)CC1 = 232 to 236 °C
CN1CCC(O)(C2SCCCS2)CC1 = 115 to 120 °C
OCCN1CCC(=C2c3ccccc3Oc3ccc(Br)cc32)CC1 = 142 to 146 °C
O=C(N[C@H](Cc1ccc(C(F)(F)F)cc1)[C@@H](O)c1ccc(F)cc1)c1ccc(CO)c2ccccc12 (racemic) = 202 to 203 °C
Nc1cc(-n2cncn2)ccc1[N+](=O)[O-] = 259 to 261 °C
CCN(CC)CCOc1ccc2cc3ccc(OCCN(CC)CC)c(Cl)c3nc2c1Cl = 83 to 84 °C
O=C(O)CCCCCCCn1nnc(-c2ccccc2)c1-c1ccccc1 = 103 to 104 °C

Exercise: Consider the molecule "CC(C)C[C@@H](OC(=O)c1cccnc1)C(=O)O" and give its measured melting point.
Solution: 101 to 103 °C

Exercise: Consider the molecule "O=C(C=Cc1ccccc1)Nc1ccc2ccc(Cl)nc2n1" and give its measured melting point.
Solution: 263 °C

Exercise: Consider the molecule COC(=O)c1ccc(CCC(CS(=O)(=O)c2ccc(Oc3ccc(OC(F)(F)F)cc3)cc2)N(O)C=O)cc1 (stereo not given) and give its measured melting point.
Solution: 153 to 154 °C

Exercise: Consider the molecule "Cc1ccc(C)n1CCNC(=O)c1ccc(Cl)cc1" and give its measured melting point.
Solution: 104 to 105 °C

Exercise: Consider the molecule CCOC(=O)C1=C(C)NC(c2cscn2)=NC1c1ccc(O)cc1 (stereo not given) and give its measured melting point.
Solution: 213 to 216 °C

Exercise: Consider the molecule "CCCn1c(=O)c2[nH]c(/C=C/c3ccc(Cl)c(Cl)c3)nc2n(CCC)c1=O" and give its measured melting point.
Solution: 195 to 202 °C

* * *

Overview of recorded melting point for various molecules

# count of solved cases: 5
CC(C)(C)OC(=O)NCC(N)C(=O)N1CCCCC1 (stereo not given) = 87 to 90 °C
CCCCNc1nc(C)c(C(=O)OCC)c(N)c1[N+](=O)[O-] = 74 to 76 °C
COc1ccc([N+](=O)[O-])c(NC(C(=O)O)C(c2ccccc2)c2ccccc2)n1 (stereo not given) = 172 to 180 °C
CCCCCCCCCCCCCCOCCCSCCCO = 38 to 41 °C
CCOC(=O)c1ccc(CCN(C)CCCC(C#N)(C(=O)OC)c2ccc(OC)c(OC)c2)cc1 (stereo not given) = 88 to 89 °C

Exercise: Consider the molecule CNC(=O)Oc1ccc(NC(=O)C(C)Oc2ccccc2)c(C)c1 (stereo not given) and give its measured melting point.
Solution: 123 to 125 °C

Exercise: Consider the molecule "C=C(CCCO)c1ccc(C(=O)OC)cc1" and give its measured melting point.
Solution: 28 to 30 °C

Exercise: Consider the molecule "CN(C(=O)c1ccccc1C(c1ccc(O)cc1)c1ccc(O)cc1)c1ccccc1" and give its measured melting point.
Solution: 246 to 247 °C

Exercise: Consider the molecule "Cc1cccc(Nc2cc(Nc3cccc(OCC(=O)N(CCO)CCO)c3)ncn2)c1" and give its measured melting point.
Solution: 112 to 113 °C

Exercise: Consider the molecule CCC1CC(=O)C(C(=O)NS(=O)(=O)c2ccc(C)cc2)C(=O)C1 (stereo not given) and give its measured melting point.
Solution: 86 to 87 °C

* * *

Overview of recorded melting point for various molecules

# count of solved cases: 5
CN1CN(C(=O)c2c(F)cccc2F)C(=O)N(c2ccc(S(=O)(=O)C(F)F)cc2F)C1 = 203 to 205 °C
CCCCOCCOc1ccc(-c2cnc(N3CCCC3)c(/C=C(\C)C(=O)O)c2)cc1 = 106 to 107 °C
CCCCCCCCCCOc1cnc(-c2ccc(C#CCCCC(C)OC(C)=O)cc2)nc1 (stereo unspecified) = 57 to 58 °C
CCCCCC(O)C=Cc1scnc1CCCCCCC(=O)O (stereo unspecified) = 73 to 74 °C
COc1ccc(COCCC(C)=O)cc1 = 48 to 49 °C

Exercise: Consider the molecule O=C(O)c1ccc(N2C(=O)CCC2C(=O)O)c([N+](=O)[O-])c1 (stereo unspecified) and give its measured melting point.
Solution: 235 to 237 °C

Exercise: Consider the molecule CC(C)c1ccc(C2c3[nH]c4ccccc4c3CCN2C(=O)C=Cc2cccc([N+](=O)[O-])c2)cc1 (stereo unspecified) and give its measured melting point.
Solution: 195 °C

Exercise: Consider the molecule "CC(C)(C)OC(=O)Nc1ccc(-c2noc(COc3ccc(F)c(C(N)=O)c3F)n2)cc1" and give its measured melting point.
Solution: 165 to 166 °C

Exercise: Consider the molecule "CCOc1cc(Cl)ccc1Cn1nc(OC(C)C)cc1CCCOc1c(CC(=O)O)cccc1OC" and give its measured melting point.
Solution: 98 to 99 °C

Exercise: Consider the molecule "CCc1c(C(=O)C(N)=O)c2c(NCC(=O)OC)cccc2n1Cc1ccccc1" and give its measured melting point.
Solution: 188 to 193 °C

Exercise: Consider the molecule "Cc1c(C(=O)O)cnn1-c1ccc([N+](=O)[O-])cc1" and give its measured melting point.
Solution: 202 °C

Exercise: Consider the molecule "O=C(O)c1cnc(-c2ccc(Cl)cc2)s1" and give its measured melting point.
Solution: 233 to 234 °C

Exercise: Consider the molecule "Cc1ccc2c(N)c(C#N)sc2n1" and give its measured melting point.
Solution: 241 to 242 °C

Exercise: Consider the molecule "COc1ccnc(CCc2nc3cc(-c4ccc5[nH]ccc5c4)cnc3[nH]2)c1" and give its measured melting point.
Solution: 241 to 242 °C

Exercise: Consider the molecule CCOC(=O)NCC(O)c1ccc(OC)c(OC)c1 (stereo unspecified) and give its measured melting point.
Solution: 90 to 92 °C

Exercise: Consider the molecule "CCc1[nH]n(C2CCCC2)c2nc(-c3cccc(-n4ccnc4)c3)nc(=O)c1-2" and give its measured melting point.
Solution: 264 to 265 °C

Exercise: Consider the molecule OC(c1ccccc1)(c1ncc[nH]1)c1ccc(Cl)cc1Cl (stereo unspecified) and give its measured melting point.
Solution: 176 to 177 °C

Exercise: Consider the molecule c1ccc(C2CN=C3Sc4ccccc4N32)cc1 (stereo unspecified) and give its measured melting point.
Solution: 132 °C

Exercise: Consider the molecule "O=c1c2ccccc2[nH]c(=S)n1CCN1CCC(Nc2nc3ccccc3n2Cc2ccc(F)cc2)CC1" and give its measured melting point.
Solution: 198 °C

Exercise: Consider the molecule "CCNC(=O)c1ccc(F)c(F)c1" and give its measured melting point.
Solution: 94.1 to 96.2 °C

Exercise: Consider the molecule "CC(=O)NC1CC(=O)CC(=O)C1" and give its measured melting point.
Solution: 181 to 183 °C

* * *

Overview of recorded melting point for various compounds

# count of solved cases: 2
N#CCCn1ncccc1=O = 75 to 76 °C
COc1cccc2c1OCN(CCc1ccc(Cl)cc1)C2 = 87 to 88 °C

Exercise: Consider the compound "Oc1nc2cccccc-2n1" and give its measured melting point.
Solution: 245 °C

Exercise: Consider the compound "CC(C)(C)[Si](C)(C)O[C@@H]1[C@H](O)C[C@]2(O[Si](C)(C)C(C)(C)C)C[C@H]1OC2=O" and give its measured melting point.
Solution: 107 to 108 °C

Exercise: Consider the compound "O=[N+]([O-])c1ccc(Cl)c(C2OCCO2)c1" and give its measured melting point.
Solution: 78 to 81 °C

Exercise: Consider the compound "Oc1cc(Cl)cc(Br)c1O" and give its measured melting point.
Solution: 71 to 73 °C

Exercise: Consider the compound "CCN(c1ccc(N2CCN(c3ccc(O)cc3)CC2)cc1)c1nccs1" and give its measured melting point.
Solution: 215 °C

Exercise: Consider the compound CN(C)C(=S)SC(C[N+](=O)[O-])c1ccccc1 (stereo unspecified) and give its measured melting point.
Solution: 105 to 106 °C

Exercise: Consider the compound C=CC(CCc1ccccc1)NC(=O)OC(C)(C)C (stereo unspecified) and give its measured melting point.
Solution: 53 °C

Exercise: Consider the compound Cc1cc(NCCNCC(O)COc2ccccc2)c2ccccc2n1 (stereo unspecified) and give its measured melting point.
Solution: 151 to 152 °C

Exercise: Consider the compound "O=[N+]([O-])c1ccc(S(=O)(=O)Nc2cccc3c(Cl)c[nH]c23)cc1" and give its measured melting point.
Solution: 200 °C

* * *

Overview of recorded melting point for various compounds

# count of solved cases: 3
C(CSc1nnc(SCCCN2CCOCC2)s1)CN1CCOCC1 = 65.5 to 66 °C
CCCCn1c(CCC)cc(=O)c(C(=O)Nc2ccccc2)c1CCC = 134 to 136 °C
CSc1c(C(=O)NN2CCCCC2)nn(-c2ccc(Cl)cc2Cl)c1-c1ccc(Cl)cc1 = 172 to 174 °C

Exercise: Consider the compound "CNCc1ccc(-c2cc3c4c(ccn4C(=O)CNC3)c2)cc1" and give its measured melting point.
Solution: 178 to 180 °C

Exercise: Consider the compound CN1CCN(C(=O)OC(C)(C)C)CC1C(N)=O (stereo not given) and give its measured melting point.
Solution: 137 to 138 °C
